Protocol: CNS and lung tissue concentrations after oral dosing in rats
Format: in vivo
Condition: both sexes, Sprague Dawley, rat, lung; SD rats, oral gavage, 10 mg/kg/day, day 15, 3 h post-dose; read-out: Mean dh404 Lung Tissue Concentration (nM) ± SEM
Parameter: concentration at 3 h (nM)
Number only, in nM; omit the unit.

Input: concentration at 3 h lookup needed for CC1(C)CC[C@]2(C(=O)NCC(F)(F)F)CC[C@]3(C)[C@H](C(=O)C[C@@H]4[C@@]5(C)C=C(C#N)C(=O)C(C)(C)[C@@H]5CC[C@]43C)[C@@H]2C1 [Compound 63102] , thanks.
Output: 7020

###

Protocol: CNS and lung tissue concentrations after oral dosing in rats
Assay type: in vivo
Condition: both sexes, Sprague Dawley, rat, brain (CNS tissue); SD rats, oral gavage, 10 mg/kg/day, day 15, 3 h post-dose; read-out: Mean 404-02 CNS Tissue Concentration (nM) ± SEM
Parameter: concentration at 3 h (nM)
# output: bare number, implied unit nM

Input: Recorded concentration at 3 h of CC1(C)CC[C@]2(C(=O)NCC(F)(F)F)CC[C@]3(C)[C@H](C(=O)C[C@@H]4[C@@]5(C)C=C(C#N)C(=O)C(C)(C)[C@@H]5CC[C@]43C)[C@@H]2C1 , please.
Output: 733

###

Would you mind telling me the reported pIC50 of each entry?
System: IFNγ-induced NO production in RAW264.7 macrophages
Protocol: Suppression of IFNγ-induced NO production (Griess reagent)
Assay type: cell-based, mouse
Condition: Mus musculus; RAW264.7, 20 ng/ml IFNγ 24 h, 2 h pre-treatment
Protocol: FIGS. 1-8 and 32-34. Inhibition of NO Production. RAW264.7 macrophages were pre-treated with DMSO or drugs at various concentrations (nM) for 2 hours, then treated with 20 ng/ml IFNγ for 24 hours. NO concentration in media was determined using a Griess reagent system; cell viability was determined using WST-1 reagent. Nitric Oxide production and cell viability. […] NO concentration in media was determined using the Griess reagent system (Promega). Cell viability was determined using WST-1 reagent (Roche).
pIC50: −log10 of the molar value.

Input: Any idea what pIC50 was measured for CC1(C)CC[C@]2(C=O)CC[C@]3(C)[C@H](C(=O)CC4[C@@]5(C)C=C(C#N)C(=O)C(C)(C)[C@@H]5CC[C@]43C)[C@@H]2C1 (some centres unmarked) ?
Output: ~8.00

Input: What about CC1(C)CC[C@]2(C(=O)NCC(F)(F)F)CC[C@]3(C)[C@H](C(=O)C[C@@H]4[C@@]5(C)CC(C#N)C(=O)C(C)(C)[C@@H]5CC[C@]43C)[C@@H]2C1 (some centres unmarked) ?
Output: < 6.70

Input: Consider next the compound COC(=O)[C@]12CCC(C)(C)C[C@H]1[C@H]1C(=O)CC3[C@@]4(C)CC(C#N)=C(O)C(C)(C)[C@@H]4CC[C@@]3(C)[C@]1(C)CC2 (some centres unmarked) in the same way.
Output: < 6.70

Input: Try the compound Cc1nnc([C@]23CCC(C)(C)C[C@H]2[C@H]2C(=O)C[C@@H]4[C@@]5(C)C=C(C#N)C(=O)C(C)(C)[C@@H]5CC[C@@]4(C)[C@]2(C)CC3)s1
Output: ~7.15

Input: Entry COC(=O)[C@]12CCC(C)(C)C[C@H]1[C@H]1NC(=O)C[C@@H]3[C@@]4(C)C=C(C#N)C(=O)C(C)(C)[C@@H]4CC[C@@]3(C)[C@]1(C)CC2 please
Output: ~6.70
